Molecular target: Matrix-associated proTGFβ1 (hLTBP1-proTGFβ1 and hLTBP3-proTGFβ1)
Assay: BLI (Octet)
ECM AVRG (average KD) overview
Express it in nM; write the number only.

Field: example entries. Status: answers known.
Ab26 (antibody, V domains shown) VH: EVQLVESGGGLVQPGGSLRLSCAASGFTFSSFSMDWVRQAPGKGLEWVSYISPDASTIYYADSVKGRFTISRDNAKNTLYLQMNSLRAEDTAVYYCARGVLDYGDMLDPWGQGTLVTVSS VL: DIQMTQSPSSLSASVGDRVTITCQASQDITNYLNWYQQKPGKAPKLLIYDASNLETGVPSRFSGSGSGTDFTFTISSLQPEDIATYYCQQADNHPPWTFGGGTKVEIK
0.197
Ab22 (antibody, V domains shown) VH: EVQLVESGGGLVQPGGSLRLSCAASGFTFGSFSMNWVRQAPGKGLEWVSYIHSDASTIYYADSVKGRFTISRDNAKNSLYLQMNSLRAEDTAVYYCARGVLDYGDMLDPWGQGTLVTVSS VL: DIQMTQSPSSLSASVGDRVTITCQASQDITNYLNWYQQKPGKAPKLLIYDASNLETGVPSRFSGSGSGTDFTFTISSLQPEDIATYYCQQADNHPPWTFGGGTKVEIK
0.324

ECM AVRG (average KD) measured on Ab29 (antibody, V domains shown) VH: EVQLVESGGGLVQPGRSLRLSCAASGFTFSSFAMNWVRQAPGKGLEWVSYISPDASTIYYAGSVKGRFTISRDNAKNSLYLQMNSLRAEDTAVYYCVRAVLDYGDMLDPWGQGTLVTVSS VL: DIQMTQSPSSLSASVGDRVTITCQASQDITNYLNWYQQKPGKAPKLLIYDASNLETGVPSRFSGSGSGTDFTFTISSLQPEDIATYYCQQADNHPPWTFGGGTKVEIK = 0.155

# ECM AVRG (average KD) (binder: Ab27 (antibody, V domains shown) VH: EVQLVESGGGLVQPGGSLRLSCAASGFTFSFYAMNWVRQAPGKGLEWVSYISPDASTIYYADSVKGRFTISRDNAKNSLYLQMNSLRAEDTAVYYCARGVLDYGDMLDPWGQGTLVTVSS VL: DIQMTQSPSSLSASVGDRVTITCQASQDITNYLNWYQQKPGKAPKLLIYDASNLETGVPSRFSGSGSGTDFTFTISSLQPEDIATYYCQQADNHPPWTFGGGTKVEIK ) is 0.208
